// data source = PubChem BioAssay AID1919005

# Tested on: 855422-203-R-J1-PDC complex spheroid growth;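 note: spheroids exposed to agents for seven days before readout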
# METHOD_SUMMARY: Anticancer human tumor 855422-203-R-J1-PDC patient-derived bladder carcinoma cell line growth inhibition [AhR]
# EXPERIMENTAL_SETUP: curve of first compound; second compound 10 µM
Let's look at some compounds and their measured IC50.
ATTRIBUTE_MEASURED: IC50

INSERT INTO results (compound, attribute_measured, endpoint_value) VALUES
  ('CC1COCCN1c1cc(C2(S(C)(=N)=O)CC2)nc(-c2ccnc3[nH]ccc23)n1 (stereo not drawn) + Cc1cncc(-c2nc(NCCc3c[nH]c4ccccc34)c3ncn(C(C)C)c3n2)c1', 'IC50', '< 31.6 nM'),
  ('CC1(C)CCC(CN2CCN(c3ccc(C(=O)NS(=O)(=O)c4ccc(NCC5CCOCC5)c([N+](=O)[O-])c4)c(Oc4cnc5[nH]ccc5c4)c3)CC2)=C(c2ccc(Cl)cc2)C1 + Cc1ccccc1N=Nc1ccc(NC(=O)c2ccnn2C)c(C)c1', 'IC50', '4830 nM'),
  ('COc1cccc2c1C(=O)c1c(O)c3c(c(O)c1C2=O)CC(O)(C(=O)CO)CC3OC1CC(N)C(O)C(C)O1 (stereo not drawn) + Cc1cncc(-c2nc(NCCc3c[nH]c4ccccc34)c3ncn(C(C)C)c3n2)c1', 'IC50', '< 31.6 nM');
